# PROCEDURE_SUMMARY: solvent given as SMILES
# RUN_PARAMETERS: in CS(C)=O
Record form. Attribute: absorption maximum. Fill in for each entry.

Solved cases (4 shown):
| STRUCTURE | VALUE_OBSERVED |
| --- | --- |
| COc1cccc2cc(-c3cc4cccc(OC)c4oc3=O)oc12 | 359 nm |
| CCCCCCCCC1(CCCCCCCC)c2cc(-c3ccc([N+](=O)[O-])cc3)ccc2-c2ccc(-c3ccc([N+](=O)[O-])cc3)cc21 | 382 nm |
| CCCCCCC(CCCCCC)n1c(=O)c2c3ccc4cccc5c6cccc7ccc(c2c1=O)c(c76)c3c45 | 339 nm |
| CCN(CC)c1ccc2cc(/C=C/C(=O)/C=C(O)/C=C/c3cc4ccc(N(CC)CC)cc4oc3=O)c(=O)oc2c1 | 540 nm |

Could I get absorption maximum for every one of these entries?
1. CN(C)CCNc1ccc([N+](=O)[O-])cc1[N+](=O)[O-]
2. CN(C)c1ccc(/C=C/c2ccc(-c3nnc(-c4ccc(-c5cc6ccccc6s5)cc4)o3)cc2)cc1
3. COc1cc2c(cc1C=C(C#N)C#N)c1ccccc1n2C
4. Clc1ccccc1-c1nc2sc3ccccc3c2s1
5. N#Cc1c(/C=C/c2ccc(N(c3ccccc3)c3ccccc3)cc2)cc(-c2ccccc2)cc1N1CCCCC1

Output:
["363 nm", "340 nm", "427 nm", "347 nm", "398 nm"]
